Assay: reducers of endogenous Her2 protein level, primary screen, SKBR3 breast tumor cells, AlphaScreen, ATP viability (AID 461);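 further: percent of carrier control wells set as 100% viability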
Conditions: 18-24 h, measured here: SKBR3 viability, ATP luminescence, at 10 µM
OBSERVED_PROPERTY: viability (%)
Provide the reading as a plain figure in %.

MOLECULE: CCC(Sc1ccc2nnc(-c3ccc(F)cc3)n2n1)C(=O)OC (stereo not drawn)
REPORTED_VALUE: 110

MOLECULE: CC(NCc1ccco1)C(=O)N1CCc2ccccc2C1 (stereo not drawn)
REPORTED_VALUE: 108

MOLECULE: COc1ccc(S(=O)(=O)NCC(=O)N(CC(=O)NCC2CCCO2)c2ccccc2C)cc1 (stereo not drawn)
REPORTED_VALUE: 123

MOLECULE: COc1cc(-c2nnc(SCC(=O)c3cc(C)n(CC4CCCO4)c3C)o2)cc(OC)c1OC (stereo not drawn)
REPORTED_VALUE: 104

Could you share which viability value was measured for `Cc1ccc2[nH]cc(C(=O)CN3CCC4(CC3)OCCO4)c2c1` ?
106

Please do the same for `COCCN(CC(=O)NCc1ccccc1)C(=O)CCC(=O)Nc1ccccn1` as well.
112

Continue with `O=c1c(CN2CCN(Cc3ccccc3)CC2)coc2ccc(Cl)cc12`
90

Next molecule up: `Cc1nc2cccc(C(=O)NC3CCCCC3)c2o1`
100

* * *

Test: growth inhibitors of H69AR lung tumor, primary screen, human, duplicate replicates (AID 580);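 further: 100% = mean luminescence of untreated wells and 0% = no signal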
Settings: H69AR lung tumor cells viability, ATP luminescence, 72 h; at 10 µM; stronger effect = lower value
The source made the active and inactive calls.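 Rule for the calls: active = viability at or under a set limit in both replicates, limit being median viability minus 3 SD (cut at about 48% in these data, passing the limit was not always enough); inconclusive = at or under the limit in just one replicate; inactive = at or above the limit in both replicates.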
OBSERVED_PROPERTY: viability

As a guide, the following entries are already answered.
MOLECULE: Cn1c(C(=O)N2CCN(C(=O)c3ccco3)CC2)cc2c(=O)n3ccccc3nc21
viability: 82.6% (inactive)
//
MOLECULE: CN1CCCC(OC(=O)COc2ccc(Br)cc2)C1 (stereo not drawn)
viability: 89.7% (inactive)
//
MOLECULE: COC(=O)c1cc(Br)c(=O)n(CCN2CCOCC2)c1
viability: 96.2% (inactive)
//
MOLECULE: COc1cccc(C(=O)OCn2nnc3ccccc3c2=O)c1
viability: 114% (inactive)
//
MOLECULE: CCN(CCCNC(=O)CC1Oc2ccc(C)cc2NC1=O)Cc1ccccc1 (stereo not drawn)
viability: 85% (inactive)

From here, focus on the item given below.
Entry CC(C)(C)C1CCc2[nH]nc(C(=O)O)c2C1 (stereo not drawn) : reported viability = ?
98% (inactive)

* * *

Experiment: HUVEC growth inhibition – cell-based, human, primary screen (AID 575);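 further: 100% = median of untreated cell wells with 0.1% DMSO on each plate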
Conditions: HUVEC proliferation, CellTiter-Glo luminescence, 72 h; at 10 µM; stronger effect = lower value
OBSERVED_PROPERTY: viability (%)
Report the value in % with no unit label.

Field: example entries. Status: answers known.
MOLECULE: Cc1cc(=O)[nH]c(=S)n1-c1ccccc1
viability [%]: 101
//
MOLECULE: CC1=CCC2C(=O)N(c3nc(C)cc(C)n3)C(=O)C2C1 (stereo not given)
viability [%]: 101

Quick one: viability of `Cc1ccc(Nc2nc(CSc3nnnn3C)cs2)cc1` ?
95.3

CC(Sc1nnnn1-c1ccccc1)C(=O)Nc1ccc(Cl)cn1 (stereo not given) , same question.
73.9

Try this molecule too: N#CC1=C(N)Oc2n[nH]c(-c3ccncc3)c2C1c1ccsc1 (stereo not given)
113

Again, but for CCC(C)NC(=O)c1ccccc1NC(=O)C(C)N(c1ccccc1)S(C)(=O)=O (stereo not given)
89.5

Note, next up: `Cc1ccccc1C(=O)NC1CCN(CC(=O)Nc2nccs2)CC1`
88.8

Another molecule to check: CCOC(=O)N1CCC(N2CC34C=CC(O3)C(C(=O)O)C4C2=O)CC1 (stereo not given)
92.4

Also `O=C(CCC(=O)c1cccs1)NCc1ccccc1` , if possible.
98.2

Could you do the same for `COc1ccc(CCn2c(=N)c(C#N)cc3c(=O)n4ccccc4nc32)cc1` , please?
79.7
